TARGET_ENTITY: Tyrosine-protein kinase ABL1 (Homo sapiens)
METHOD: ABL1 kinase (ABL1-N-HiBiT) enzymatic inhibition screen - Functional assay
APPLIED_CONDITIONS: luminescence; series mostly up to 57.5 µM
Records with an inconclusive call do not appear. Activity calls are given as the source filed them. Calls come from the whole dose curve.
Would you mind answering with one of these outcomes? TRUE (active), FALSE (inactive)

Completed entries (count: 6):
CCN1C(=O)CNc2ncc(-c3ccc(-c4ncn[nH]4)nc3C)nc21    FALSE
CCn1c(=O)c(-c2ccc(Cl)cc2Cl)cc2cnc(Nc3ccc(N4CCNCC4)c(F)c3)nc21    TRUE
COc1cc2ncnc(Oc3cccc(NC(=O)Nc4cc(C(C)(C)C(F)(F)F)on4)c3)c2cc1OC    TRUE
CNS(=O)(=O)c1ccc2c(c1)/C(=C/c1[nH]c3c(c1CCCN1CCN(C)CC1)CCCC3)C(=O)N2    TRUE
CC(C)CCN1c2nc(Nc3cc(F)c(O)c(F)c3)ncc2N(C)C(=O)C1C (centres undefined)    FALSE
CN1CCN(CCOc2cc(OC3CCOCC3)c3c(Nc4c(Cl)ccc5c4OCO5)ncnc3c2)CC1    TRUE

Exam item: Write down the call the test reported for this compound. Item: COc1cc2nccc(Oc3ccc(NC(=O)Nc4ccc(F)cc4F)c(F)c3)c2cc1OC
Marked response: TRUE

Exam item: Per the assay record, what outcome was assigned to Cc1cc(Nc2ncc3c(n2)N(C)C(=O)N(c2cc(NC(=O)c4cccc(C(F)(F)F)c4)ccc2C)C3)n(C)n1 ?
Marked response: TRUE

Exam item: What outcome does the record of this test show for Nc1nc(Nc2ccc(S(N)(=O)=O)cc2)n(C(=S)Nc2c(F)cccc2F)n1 ?
Marked response: TRUE

###

TARGET_ENTITY: Tyrosine-protein kinase ABL1 (Homo sapiens) (UniProt P00519)
Sequence (P00519 whole entry, looked up): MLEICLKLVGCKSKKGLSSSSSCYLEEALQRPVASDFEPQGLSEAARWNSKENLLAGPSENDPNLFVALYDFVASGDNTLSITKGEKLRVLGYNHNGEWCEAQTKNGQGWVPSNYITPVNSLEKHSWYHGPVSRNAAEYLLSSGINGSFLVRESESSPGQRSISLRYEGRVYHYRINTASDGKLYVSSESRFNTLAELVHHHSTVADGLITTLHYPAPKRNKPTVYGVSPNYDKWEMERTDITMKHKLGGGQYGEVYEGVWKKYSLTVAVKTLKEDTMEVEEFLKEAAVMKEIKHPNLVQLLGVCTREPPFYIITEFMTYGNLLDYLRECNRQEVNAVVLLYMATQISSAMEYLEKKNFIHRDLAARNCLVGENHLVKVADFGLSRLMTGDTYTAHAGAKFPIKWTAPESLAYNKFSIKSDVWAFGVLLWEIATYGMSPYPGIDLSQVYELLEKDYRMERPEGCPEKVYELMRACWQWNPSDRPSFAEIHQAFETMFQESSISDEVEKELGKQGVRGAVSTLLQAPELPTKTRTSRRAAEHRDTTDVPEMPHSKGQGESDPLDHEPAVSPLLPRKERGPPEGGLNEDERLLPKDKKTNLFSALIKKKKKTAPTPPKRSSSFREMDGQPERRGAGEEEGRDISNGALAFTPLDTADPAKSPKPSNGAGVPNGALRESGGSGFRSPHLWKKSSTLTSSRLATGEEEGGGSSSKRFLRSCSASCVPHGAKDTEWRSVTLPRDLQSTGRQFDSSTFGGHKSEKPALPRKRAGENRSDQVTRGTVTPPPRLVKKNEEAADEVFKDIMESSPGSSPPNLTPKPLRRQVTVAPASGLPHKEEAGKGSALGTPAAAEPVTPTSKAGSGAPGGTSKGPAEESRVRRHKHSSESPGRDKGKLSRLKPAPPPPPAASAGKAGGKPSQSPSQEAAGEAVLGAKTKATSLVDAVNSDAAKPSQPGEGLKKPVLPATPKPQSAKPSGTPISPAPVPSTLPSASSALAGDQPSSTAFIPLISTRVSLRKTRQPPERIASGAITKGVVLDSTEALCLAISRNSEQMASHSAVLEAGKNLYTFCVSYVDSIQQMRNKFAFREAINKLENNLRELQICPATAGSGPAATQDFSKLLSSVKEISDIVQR
METHOD: ABL1 kinase (ABL1-N-HiBiT) enzymatic inhibition screen - Functional assay
APPLIED_CONDITIONS: luminescence; series mostly up to 57.5 µM
Results filed as inconclusive are left out. Calls of active or inactive are those of the source. Calls come from the whole dose curve.
Would you mind answering with one of these outcomes? active, inactive

Example results:
Cc1ccc(C(=O)Nc2ccc(Oc3cc4cnn(C)c4cc3-c3cn[nH]c3)c(F)c2)c(=O)n1-c1ccc(F)cc1    inactive
Cc1c(Cl)cccc1S(=O)(=O)Nc1nc(NCCc2ccccc2)nc2c1CN(Cc1ccccc1)CC2    inactive
FC(F)(F)c1ccc(/C=C/c2nc(COc3ccc(CCCCn4ccnn4)cc3)co2)cc1    inactive
COc1ccccc1-c1c[nH]c2ncc(-c3cncc(C(=O)N(C)C)c3)cc12    active
COc1cc(N2CCN(C)CC2)ccc1Nc1nc(N)c(C(=O)c2c(Cl)cccc2Cl)s1    inactive

Exam item: Which outcome was entered for the molecule CCN1/C(=C\C(C)=O)Sc2ccc(OC)cc21 in this test?
Marked response: inactive

Exam item: Answer briefly: the call reported for O=C(O)C1(Cc2cccc(Nc3nccs3)n2)CCC(Oc2cccc(Cl)c2F)CC1 (centres undefined) in this assay.
Marked response: active

Exam item: Can you look up the reported call for C=CC(=O)Nc1cccc(Oc2nc(Nc3ccc(N4CCN(C)CC4)cc3OC)ncc2Cl)c1 for me?
Marked response: inactive

Exam item: Kindly provide the recorded test outcome for the following molecule: CN1CCN(CCCNc2ncc(Cl)c(-c3cc4c(C(=O)NC5CC5)cccc4s3)n2)CC1
Marked response: inactive
